Attribution: patent US10112932B2

Test: Multiple day oral dosing in dogs (exposure, clinical and anatomic pathology)
Type: in vivo, Beagle dogs
Details: Beagle, dog, plasma, po, 0.1 mg/kg/day; read-out: Cmax D14, total
MEASURED_ATTRIBUTE: Cmax (nM)
Only the number, expressed in nM, is required.

Q) Find the recorded Cmax belonging to NC(=O)[C@@H](Nc1ccc2c(c1)OCCn1cc(N3C(=O)OC[C@H]3C(F)F)nc1-2)C1CC1 and report it.
A) 40

* * *

Test system: HCC1954 (PI3Kα mutant H1047R), p-PRAS40
Experiment: p-PRAS40 MSD assay in HCC1954 cells (Example 907)
Conditions: read-out: P-PRAS40 HCC1954 MSD EC50; 24 hours treatment
MEASURED_ATTRIBUTE: pEC50
pEC50 is defined as minus the log10 of a concentration measured in mol/L.

Q) Find the recorded pEC50 belonging to C[C@H](Nc1ccc2c(c1)OCCn1cc(N3C(=O)OC[C@H]3C(F)F)nc1-2)C(N)=O and report it.
A) 7.72

Q) Find the recorded pEC50 belonging to Cc1nc(-c2cn3c(n2)-c2ccc(-c4cnn(C(C)(C)C(N)=O)c4)cc2OCC3)n(C(C)C)n1 and report it.
A) 7.64
